Data credit: patent US20030054411A1

- assay system: Giα2 (Homo sapiens, UniProt P04899)
- Construct: made in house; host or cells: Sf9 insect cells
- Sequence (P04899 whole entry): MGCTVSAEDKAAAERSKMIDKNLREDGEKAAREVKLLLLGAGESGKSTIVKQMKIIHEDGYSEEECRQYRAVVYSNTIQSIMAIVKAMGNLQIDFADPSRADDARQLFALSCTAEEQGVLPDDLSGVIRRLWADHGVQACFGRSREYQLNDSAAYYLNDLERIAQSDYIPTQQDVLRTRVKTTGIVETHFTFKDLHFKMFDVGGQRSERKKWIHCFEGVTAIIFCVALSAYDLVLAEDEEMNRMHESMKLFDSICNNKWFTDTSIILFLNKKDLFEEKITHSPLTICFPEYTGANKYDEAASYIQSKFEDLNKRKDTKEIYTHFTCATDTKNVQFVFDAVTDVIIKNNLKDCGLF
- method description: GTPγS binding assay, Giα2
- Format: biochemical
- condition notes: G-protein 100 nM, 30 min, 24° C.; read-out: IC50 for inhibition of GTPγS binding to Giα2
pIC50: −log10 of the molar value. Where no end group is shown, it is not given here.
measurement label: pIC50

Exercise: Giα2 (Homo sapiens, UniProt P04899) / pIC50 / TMGEEDFFDLLAKSQSKRMDDQRVDLAG-NH2 [GPR consensus peptide] : value?
Key: ~6.70

---

- assay system: Giα1 (Homo sapiens)
- Construct: made in house; host or cells: Sf9 insect cells
- Sequence (P63096 whole entry): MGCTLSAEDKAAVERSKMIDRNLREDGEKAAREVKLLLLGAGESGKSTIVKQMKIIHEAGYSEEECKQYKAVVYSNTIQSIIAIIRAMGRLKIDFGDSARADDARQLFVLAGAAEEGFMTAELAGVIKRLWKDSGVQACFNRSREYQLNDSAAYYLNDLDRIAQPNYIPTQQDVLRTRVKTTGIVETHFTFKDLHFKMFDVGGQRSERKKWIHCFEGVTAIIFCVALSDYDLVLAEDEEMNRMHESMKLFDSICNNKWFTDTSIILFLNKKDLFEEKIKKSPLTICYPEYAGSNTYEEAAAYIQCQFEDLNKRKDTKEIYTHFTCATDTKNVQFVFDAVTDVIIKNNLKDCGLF
- method description: GTPγS binding assay, Giα1
- Assay type: biochemical
- condition notes: G-protein 100 nM, 30 min, 24° C.; read-out: IC50 for inhibition of GTPγS binding to Giα1
Where no end group is shown, it is not given here.
measurement label: IC50

Exercise: Which value of IC50 has been reported for TMGEEDFFDLLAKSQSKRMDDQRVDLAG-NH2 [GPR consensus peptide] in the records?
Key: ~200 nM

---

- assay system: Giα2 binding to GST-AGS3-GPR (Homo sapiens)
- Construct: made in house; host or cells: Sf9 insect cells (Giα2)
- Sequence (P04899 2-355 limits assumed): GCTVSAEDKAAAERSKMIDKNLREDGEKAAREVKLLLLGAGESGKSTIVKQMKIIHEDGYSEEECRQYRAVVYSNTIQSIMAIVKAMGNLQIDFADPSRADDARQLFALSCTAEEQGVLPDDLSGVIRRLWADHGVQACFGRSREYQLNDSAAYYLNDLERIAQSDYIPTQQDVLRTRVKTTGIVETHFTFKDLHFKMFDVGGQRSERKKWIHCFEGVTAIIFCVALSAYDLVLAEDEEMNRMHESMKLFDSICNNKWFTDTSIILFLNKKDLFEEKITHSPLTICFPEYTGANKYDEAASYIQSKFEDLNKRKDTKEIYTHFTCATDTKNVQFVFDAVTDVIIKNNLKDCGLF
- method description: Protein interaction assay: Giα2 binding to AGS3-GPR with GPR peptides
- condition notes: 10 μM GDP; read-out: IC50 for blocking the binding of Giα2 to GST-AGS3-GPR
pIC50: −log10 of the molar value. Where no end group is shown, it is not given here.
measurement label: pIC50

Exercise: Data request, read-out pIC50, for TMGEEDFFDLLAKSQSKRMDDQRVDLAG-NH2 [GPR consensus peptide]
Key: ~6.70

---

- assay system: Giα1 binding to GST-AGS3-GPR (Homo sapiens)
- Construct: made in house; host or cells: Sf9 insect cells (Giα1); bacteria (His-AGS3-GPR)
- Sequence (P63096 2-354 limits assumed): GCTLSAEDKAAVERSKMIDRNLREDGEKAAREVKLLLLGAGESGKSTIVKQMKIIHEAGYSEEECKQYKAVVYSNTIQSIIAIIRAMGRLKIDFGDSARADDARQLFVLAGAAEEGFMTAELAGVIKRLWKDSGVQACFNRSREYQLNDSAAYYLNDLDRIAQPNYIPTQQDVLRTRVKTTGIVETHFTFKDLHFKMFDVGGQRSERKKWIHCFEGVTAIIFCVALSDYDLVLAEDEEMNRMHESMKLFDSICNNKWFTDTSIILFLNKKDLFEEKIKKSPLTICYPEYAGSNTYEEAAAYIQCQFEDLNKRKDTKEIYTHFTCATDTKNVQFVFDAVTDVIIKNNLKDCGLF
- method description: Protein interaction assay: Giα1 binding to AGS3-GPR with GPR peptide
- condition notes: 10 μM GDP; Giα1 75 nM, AGS3-GPR 300 nM; read-out: IC50 for blocking the binding of Giα1 to GST-AGS3-GPR
pIC50: −log10 of the molar value. Where no end group is shown, it is not given here.
measurement label: pIC50

Exercise: Can you look up pIC50 on Giα1 binding to GST-AGS3-GPR (Homo sapiens) for TMGEEDFFDLLAKSQSKRMDDQRVDLAG-NH2 [GPR consensus peptide] ?
Key: ~6.70
